Recorded Km values for a group of proteins are listed next.
Substrate: CC1=C(C)C(=O)C(C)=C(C)C1=O
Test: purified protein
Type: biochemical, Thiocapsa roseopersicina
Settings: 200 µM sulfide, 50 mM Tris-HCl pH 8.0, 25 °C, anaerobic
Please don't drop the unit; write it after the number.

>>> observed("TrSqrF; SqrF WT (Thiocapsa roseopersicina; I333F) (protein) MHRITIVGSGFAGLTAVQSIRRTAPDAEITLVSNKAEFIYYPGLIWVPCGIRSGEDLRIDLRPFFKRMRVRHLAGEATGLSPDGRTLETTAGPVENDGLVIGSGGRFIKKLPGIEHAITPCEGIAAAEAIRDRVKAMDGGSIAMGFAGNPNEPSSMRGGPIFEFIFGMDSQLRKEGRRDRFRLHFFTPAERPGNRLGPKAVDGILAEMKRRGIETHLGHKLKSFSESKVTTEAGEFDADLILFMPGMTGNTWFDNTDLPRSPGGLLQADAHCRVPGYERVYVAGDSGSFPGPDWMPKQAHMADLQARAAVKNLLAELQGRAPSETFKVELVCFVDANDTGMLVARTEKNNWVLPSTRFFHWMKLGFEWWYLRPYR")
"102.7 ± 69.9 µM"

Next protein, please.
Qu. Field request: Km | item: SqrF CTD (Thiocapsa roseopersicina) (protein, C-terminal alpha-helix deletion, stop codons after Thr356; N-terminal StrepII tag, expressed in T. roseopersicina FOQRON) MHRITIVGSGFAGLTAVQSIRRTAPDAEITLVSNKAEFIYYPGLIWVPCGIRSGEDLRIDLRPFFKRMRVRHLAGEATGLSPDGRTLETTAGPVENDGLVIGSGGRFIKKLPGIEHAITPCEGIAAAEAIRDRVKAMDGGSIAMGFAGNPNEPSSMRGGPIFEFIFGMDSQLRKEGRRDRFRLHFFTPAERPGNRLGPKAVDGILAEMKRRGIETHLGHKLKSFSESKVTTEAGEFDADLILFMPGMTGNTWFDNTDLPRSPGGLLQADAHCRVPGYERVYVAGDSGSFPGPDWMPKQAHMADLQARAAVKNLLAELQGRAPSETFKVELVCIVDANDTGMLVARTEKNNWVLPST
Ans. 70.71 ± 44.78 µM
